System: Liver
Test: Metabolic stability in human liver microsomes assessed as metabolic rate at 1 uM preincubated for 5 mins followed by addition of NADPH measured after 3 to 30 mins by LC-MS/MS analysis
Assay type: ADME, microsome
Decision: Drug metabolism compared against 0.08 nmol/min/mg; not below it gives Condition met, below it gives Condition not met.

COc1cnc(N2CCOCC2)c2sc(NC(=O)C(C)(C)Oc3ccc(F)cc3)nc12 | Condition not met
COc1ccc(N2CCOCC2)c2sc(NC(=O)C(C)(C)Oc3ccc(C)cc3)nc12 | Condition met
COc1ccc(OC(C)(C)C(=O)Nc2nc3c(OC)ccc(N4CCOCC4)c3s2)cc1OC | Condition not met
COc1cnc(N2CCOCC2)c2sc(NC(=O)C(C)(C)Oc3cccc(F)c3)nc12 | Condition not met
COc1ccc(N2CCOCC2)c2sc(NC(=O)C(C)(C)Oc3ccc(F)c(F)c3)nc12 | Condition not met
COc1ccc(N2CCOCC2)c2sc(NC(=O)C(C)(C)Oc3ccc(F)cc3F)nc12 | Condition met
COc1cnc(N2CCOCC2)c2sc(NC(=O)C(C)(C)Oc3ccc(F)c(F)c3)nc12 | Condition not met
COCCOc1cccc(OC(C)(C)C(=O)Nc2nc3c(OC)cnc(N4CCOCC4)c3s2)c1 | Condition met

Please find the next molecule below.
Dear colleague, could you confirm whether `COc1cnc(N2CCOCC2)c2sc(NC(=O)C(C)(C)Oc3c(F)cccc3F)nc12` has Drug metabolism at or above 0.08 nmol/min/mg?
Condition met
